These data points were gathered from patent US10683282B2.

System: NIH3T3
Assay: Cytotoxicity test (cell counting kit-8)
Format: cell-based
Conditions: Mus musculus, WST-8
REPORTED_METRIC: IC50

Given the molecule "Clc1cnc(Nc2ccc(OCCN3CCCC3)cc2)nc1NCc1ccco1" and test system NIH3T3, the measured IC50 is > 100 µM

* * *

Target: AXL(R499C) (Homo sapiens, UniProt P30530, R499C)
Sequence (P30530 26-894 R499C): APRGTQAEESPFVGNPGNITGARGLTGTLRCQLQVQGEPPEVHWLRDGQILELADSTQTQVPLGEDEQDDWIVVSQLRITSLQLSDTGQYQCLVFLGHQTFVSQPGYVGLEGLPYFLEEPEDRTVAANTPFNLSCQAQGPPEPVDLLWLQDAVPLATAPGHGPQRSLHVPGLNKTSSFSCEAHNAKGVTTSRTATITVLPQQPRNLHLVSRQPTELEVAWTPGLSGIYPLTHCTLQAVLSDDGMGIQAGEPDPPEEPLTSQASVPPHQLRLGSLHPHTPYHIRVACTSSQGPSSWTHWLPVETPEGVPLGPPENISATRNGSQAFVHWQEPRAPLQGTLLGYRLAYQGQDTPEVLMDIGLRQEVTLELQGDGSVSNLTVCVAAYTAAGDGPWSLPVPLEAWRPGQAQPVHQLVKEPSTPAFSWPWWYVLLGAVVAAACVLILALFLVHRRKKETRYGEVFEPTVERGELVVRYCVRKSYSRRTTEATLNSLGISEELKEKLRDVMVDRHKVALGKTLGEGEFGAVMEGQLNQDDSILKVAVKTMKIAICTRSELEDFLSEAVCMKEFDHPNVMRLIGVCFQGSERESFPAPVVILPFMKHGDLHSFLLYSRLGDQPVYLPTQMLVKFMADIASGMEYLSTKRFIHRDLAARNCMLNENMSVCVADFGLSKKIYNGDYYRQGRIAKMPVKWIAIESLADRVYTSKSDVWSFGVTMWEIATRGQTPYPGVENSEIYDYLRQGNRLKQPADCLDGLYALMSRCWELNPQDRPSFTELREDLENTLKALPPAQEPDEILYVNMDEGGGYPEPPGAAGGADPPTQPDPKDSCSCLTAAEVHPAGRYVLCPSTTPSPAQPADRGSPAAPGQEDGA
Test: Kinase screening, HotSpot assay (Reaction Biology)
Description: Kinase screening was performed using a “HotSpot” assay platform method by Reaction Biology Corporation. The reaction buffer used herein contained 20 mM HEPES (pH 7.5), 10 mM MgCl2, 1 mM EGTA, 0.02% Brij35, 0.02 mg/mL BSA, 0.1 mM Na3VO4, 2 mM DTT and 1% DMSO. The required cofactors were added in accordance with the kinase reaction. Freshly made buffer and cofactors were added at a concentration of 20 μM during the selected enzyme reaction. […]
REPORTED_METRIC: IC50 (nM)
State the answer as a number, implicitly in nM.

For reference, reported IC50 for "Cc1cnc(Nc2ccc(OCCN3CCCC3)cc2)nc1NCc1ccco1" stands at 207
